- Tested on: hiPSC-CM (iCell Cardiomyocytes^2)
- experimental protocol: Intracellular miRNA expression by RT-qPCR in hiPSC-CM pellets after 72-hour treatment
- details: 0.3 µM, 72 h
Where a name gives a salt, the structure may show the parent alone.
hsa-miR-187-3p fold change, intracellular values by entry
parameter measured: hsa-miR-187-3p fold change, intracellular

{"compound": "Cc1cn(-c2cc(NC(=O)c3ccc(C)c(Nc4nccc(-c5cccnc5)n4)c3)cc(C(F)(F)F)c2)cn1", "value reported": 0.5}
{"compound": "Cc1nc(Nc2ncc(C(=O)Nc3c(C)cccc3Cl)s2)cc(N2CCN(CCO)CC2)n1", "value reported": 1.7}
{"compound": "CC(C)C[C@H](NC(=O)[C@H](CCc1ccccc1)NC(=O)CN1CCOCC1)C(=O)N[C@@H](Cc1ccccc1)C(=O)N[C@@H](CC(C)C)C(=O)[C@@]1(C)CO1", "value reported": 0.7}
{"compound": "CC(C)C[C@H](NC(=O)CNC(=O)c1cc(Cl)ccc1Cl)B1OC(=O)C(CC(=O)O)(CC(=O)O)O1 [Ixazomib Citrate]", "value reported": 1.6}
{"compound": "CC[C@]1(O)C[C@H]2CN(CCc3c([nH]c4ccccc34)[C@@](C(=O)OC)(c3cc4c(cc3OC)N(C=O)[C@H]3[C@@](O)(C(=O)OC)[C@H](OC(C)=O)[C@]5(CC)C=CCN6CC[C@]43[C@@H]65)C2)C1", "value reported": 0.7}

* * *

hsa-miR-126-3p fold change, intracellular values by entry
- Tested on: hiPSC-CM (iCell Cardiomyocytes^2)
- experimental protocol: Intracellular miRNA expression by RT-qPCR in hiPSC-CM pellets after 72-hour treatment
- details: 1 µM, 72 h
Structures can show the parent of a compound that is named as a salt.
parameter measured: hsa-miR-126-3p fold change, intracellular

{"compound": "CC(C)C[C@H](NC(=O)CNC(=O)c1cc(Cl)ccc1Cl)B1OC(=O)C(CC(=O)O)(CC(=O)O)O1 [Ixazomib Citrate]", "value reported": 3.1}
{"compound": "CC(C)C[C@H](NC(=O)[C@H](CCc1ccccc1)NC(=O)CN1CCOCC1)C(=O)N[C@@H](Cc1ccccc1)C(=O)N[C@@H](CC(C)C)C(=O)[C@@]1(C)CO1", "value reported": 0.9}
{"compound": "Cc1cn(-c2cc(NC(=O)c3ccc(C)c(Nc4nccc(-c5cccnc5)n4)c3)cc(C(F)(F)F)c2)cn1", "value reported": 5.5}
{"compound": "Cc1nc(Nc2ncc(C(=O)Nc3c(C)cccc3Cl)s2)cc(N2CCN(CCO)CC2)n1", "value reported": 2.1}

* * *

hsa-miR-126-3p fold change, intracellular values by entry
- System: hiPSC-CM (iCell Cardiomyocytes^2)
- experimental protocol: Intracellular miRNA expression by RT-qPCR in hiPSC-CM pellets after 72-hour treatment
- details: 0.3 µM, 72 h
Where a name gives a salt, the structure may show the parent alone.
parameter measured: hsa-miR-126-3p fold change, intracellular

{"molecule": "Cc1cn(-c2cc(NC(=O)c3ccc(C)c(Nc4nccc(-c5cccnc5)n4)c3)cc(C(F)(F)F)c2)cn1", "value reported": 4.3}
{"molecule": "CC(C)C[C@H](NC(=O)[C@H](CCc1ccccc1)NC(=O)CN1CCOCC1)C(=O)N[C@@H](Cc1ccccc1)C(=O)N[C@@H](CC(C)C)C(=O)[C@@]1(C)CO1", "value reported": 2.1}
{"molecule": "Cc1nc(Nc2ncc(C(=O)Nc3c(C)cccc3Cl)s2)cc(N2CCN(CCO)CC2)n1", "value reported": 1.6}
{"molecule": "CC[C@]1(O)C[C@H]2CN(CCc3c([nH]c4ccccc34)[C@@](C(=O)OC)(c3cc4c(cc3OC)N(C=O)[C@H]3[C@@](O)(C(=O)OC)[C@H](OC(C)=O)[C@]5(CC)C=CCN6CC[C@]43[C@@H]65)C2)C1", "value reported": 1.4}
{"molecule": "CC(C)C[C@H](NC(=O)CNC(=O)c1cc(Cl)ccc1Cl)B1OC(=O)C(CC(=O)O)(CC(=O)O)O1 [Ixazomib Citrate]", "value reported": 2.7}
